test system: K-562 leukemia; experiment: NCI tumour cell line growth inhibition, 48 h; in the data active = GI50 below about 0.43 µM; inactive = the rest
One label from this list, please: yes (active), no (inactive)

In: I'd appreciate the recorded outcome for O=C1/C(=C/c2cccc(Br)c2)COc2ccc(O)cc21 from this test.
Out: no

In: Check the results log: what was the call for OCc1ccc(N2CCc3cccc(F)c3C2)cc1Cl ?
Out: yes

In: Recorded call for COc1cccc(/C(C#N)=C/c2nc3c(N4CCOCC4)nc(Cl)nc3n2C)c1 ?
Out: no

---

test system: SR leukemia; assay: NCI tumour cell line growth inhibition, 48 h
Measurement type: TGI (µM)
# output: bare number, implied unit µM

Compound: Cc1ccc(/C=N/n2c(-c3ccc(C)cc3)n[nH]c2=O)cc1
TGI (µM): 61.3
//
Compound: O=[N+]([O-])c1ccc2c(c1)N([O-])C1(CCCCC1)[N+]2=O
TGI (µM): 51.5
//
Compound: Cc1c2c3ccccc3nc-2n(C)c2ccccc12
TGI (µM): 25.2
//
Compound: CCN1CCC(O)(c2ccc(Oc3ccc(F)cc3)cc2)C(C(=O)c2ccc(Oc3ccc(F)cc3)cc2)C1 (centres undefined)
TGI (µM): 6.5
//
Compound: CC(C)(C)OC(=O)NC1CC2(C=C(Br)C(=O)C(Br)=C2)OC1=O (centres undefined)
TGI (µM): 4.18

--- query ---
In: Can you look up the measured TGI of O=C1/C(=C/c2cccc(Br)c2)COc2ccc(O)cc21 for me?
Out: 5.2
